Numbers sourced from paper PMC4133103.

- Target: Dpo4•DNA binary complex (Saccharolobus solfataricus)
- Sequence (Q97W02 whole entry, one chain of several): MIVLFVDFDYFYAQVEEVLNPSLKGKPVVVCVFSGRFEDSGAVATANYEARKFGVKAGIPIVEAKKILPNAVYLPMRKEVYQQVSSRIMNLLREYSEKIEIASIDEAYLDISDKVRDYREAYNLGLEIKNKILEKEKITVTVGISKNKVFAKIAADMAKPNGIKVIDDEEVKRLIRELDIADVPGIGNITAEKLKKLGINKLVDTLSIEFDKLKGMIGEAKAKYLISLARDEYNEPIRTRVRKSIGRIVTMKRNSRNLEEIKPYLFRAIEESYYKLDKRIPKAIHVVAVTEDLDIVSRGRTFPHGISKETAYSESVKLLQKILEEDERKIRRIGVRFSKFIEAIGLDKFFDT
- Assay Info: Substrate specificity assay
- Format: biochemical, Sulfolobus solfataricus
- Condition: DNA substrate 19/26-mer-dG^C8-N-ABA

Compound: Cc1cn([C@H]2C[C@H](O)[C@@H](COP(=O)(O)OP(=O)(O)OP(=O)(O)O)O2)c(=O)[nH]c1=O [dTTP]
Value Unit: M⁻¹ s⁻¹
(kp/Kd, dNTP)damaged: 5.5
--
Compound: Nc1ccn([C@H]2C[C@H](O)[C@@H](COP(=O)(O)OP(=O)(O)OP(=O)(O)O)O2)c(=O)n1 [dCTP]
Value Unit: M⁻¹ s⁻¹
(kp/Kd, dNTP)damaged: 6.4
--
Compound: Nc1ncnc2c1ncn2[C@H]1C[C@H](O)[C@@H](COP(=O)(O)OP(=O)(O)OP(=O)(O)O)O1 [dATP]
Value Unit: M⁻¹ s⁻¹
(kp/Kd, dNTP)damaged: 6.7
--
Compound: Nc1nc2c(ncn2[C@H]2C[C@H](O)[C@@H](COP(=O)(O)OP(=O)(O)OP(=O)(O)O)O2)c(=O)[nH]1 [dGTP]
Value Unit: M⁻¹ s⁻¹
(kp/Kd, dNTP)damaged: 9600
